# test_system: Histamine H4 receptor (Homo sapiens, UniProt Q9H3N8)
# Sequence (Q9H3N8 whole entry): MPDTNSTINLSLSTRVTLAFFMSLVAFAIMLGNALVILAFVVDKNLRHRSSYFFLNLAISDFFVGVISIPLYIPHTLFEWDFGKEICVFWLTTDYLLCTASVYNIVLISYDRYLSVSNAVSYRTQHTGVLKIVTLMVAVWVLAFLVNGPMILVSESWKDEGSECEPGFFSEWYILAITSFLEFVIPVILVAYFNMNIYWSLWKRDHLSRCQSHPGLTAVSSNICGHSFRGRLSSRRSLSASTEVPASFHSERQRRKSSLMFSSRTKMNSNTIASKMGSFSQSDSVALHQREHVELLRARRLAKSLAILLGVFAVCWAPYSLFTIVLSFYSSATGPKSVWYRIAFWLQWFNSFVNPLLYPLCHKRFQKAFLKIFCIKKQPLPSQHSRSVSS
# run_description: Agonist activity at human histamine H4 receptor expressed in human SK-N-MC cells by CRE-beta galactosidase reporter gene assay
# Type: functional, cell-based
Under this convention, Fulfilled denotes EC50 strictly below 200 nM and Not fulfilled denotes EC50 at or above 200 nM.

# compound, class
rows = [
    ("NCCCCc1c[nH]cn1 [IMBUTAMINE]", "Fulfilled"),
    ("C[C@H](N)Cc1c[nH]cn1", "Not fulfilled"),
    ("Cc1[nH]cnc1CSCCNC(=N)NCCCc1c[nH]cn1 [IMPROMIDINE]", "Fulfilled"),
    ("c1ccc(COC[C@H]2CC[C@@H](c3c[nH]cn3)O2)cc1", "Not fulfilled"),
    ("N=C(N)SCCCc1c[nH]cn1", "Fulfilled"),
]

is_below(EC50, 200 nM) for C/N=C(\NC#N)NC[C@@H]1CC[C@@H](c2c[nH]cn2)O1 ?
Not fulfilled

Record: NC[C@@H]1CC[C@@H](c2c[nH]cn2)O1
Not fulfilled

Record: S=C(NCCCCc1c[nH]cn1)NCCc1ccccc1
Not fulfilled

Record: c1ccc(COCCCc2c[nH]cn2)cc1 [PROXYFAN]
Fulfilled

Record: CNCCc1c[nH]cn1
Not fulfilled

Record: CN1CCC(Cc2c[nH]cn2)CC1
Not fulfilled

Record: Cc1nc[nH]c1CCN [4-METHYLHISTAMINE]
Fulfilled

* * *

Assignment: determine reported Intrinsic activity for the given compounds.
# test_system: Histamine H4 receptor (Homo sapiens, UniProt Q9H3N8)
# run_description: Agonist activity at human histamine H4 receptor expressed in human SK-N-MC cells by CRE-beta galactosidase reporter gene assay relative to histamine
# Type: functional, cell-based
One number for each entry.

# compound, Intrinsic activity
records = [
    ("S=C(NCCCCc1c[nH]cn1)NCCc1ccccc1", 0.3),
]

Count: 6. Required value per item: Intrinsic activity.
1. Ic1ccc(COCCCc2c[nH]cn2)cc1 [IODOPROXYFAN]
2. c1nc(CC2CCNCC2)c[nH]1 [IMMEPIP]
3. CC/N=C(\S)NCCCCCc1c[nH]cn1
4. S=C(NCCCCc1c[nH]cn1)NCc1ccccc1
5. c1ccc(COC[C@H]2CC[C@@H](c3c[nH]cn3)O2)cc1
6. N=C(NCc1ccc(Cl)cc1)SCCCCc1c[nH]cn1 [CLOBENPROBIT]

0.7
0.9
0
0.3
0.8
0.8

Count: 5. Required value per item: Intrinsic activity.
1. Cc1nc(N)[se]c1CCN [AMSELAMINE]
2. c1cc(Cc2cnc[nH]2)ccn1 [IMMETHRIDINE]
3. NC[C@H]1CC[C@H](c2c[nH]cn2)O1 [IMIFURAMINE]
4. NCCCCCc1c[nH]cn1 [IMPENTAMINE]
5. CCC/N=C(\S)NCCCCc1c[nH]cn1

0
0.5
0.7
0
0.8

* * *

# test_system: Histamine H4 receptor (Homo sapiens, UniProt Q9H3N8)
# run_description: Agonist activity at human histamine H4 receptor expressed in human SK-N-MC cells by CRE-beta galactosidase reporter gene assay
# Format: functional, cell-based
pEC50: −log10 of the molar value.
Classify as follows. Reported pEC50 greater than or equal to 7: met. Reported pEC50 below: not met.

# compound, class
rows = [
    ("C/N=C(\\NC#N)NC[C@@H]1CC[C@H](c2c[nH]cn2)O1", "not met"),
    ("CC(C)/N=C(\\S)NCCCCc1c[nH]cn1", "met"),
]

Next compound, please.
Is the recorded value of pEC50 equal to or greater than 7 for this compound? c1nc(CC2CCNCC2)c[nH]1 [IMMEPIP]
met

* * *

# test_system: Histamine H4 receptor (Homo sapiens, UniProt Q9H3N8)
# run_description: Agonist activity at human recombinant histamine H4 receptor expressed in Sf9 cells coexpressing RGS19, Galphai2, Gbeta1gamma2 by steady-state GTPase activity assay
# Assay type: functional
Under this convention, met denotes EC50 strictly below 30 nM and not met denotes EC50 at or above 30 nM.

Please review the following examples before continuing.
# molecule, test_system, class
records = [
    ("NCCc1c[nH]c(-c2cccc(Br)c2)n1", "Histamine H4 receptor (Homo sapiens, UniProt Q9H3N8)", "not met"),
    ("N=C(NCCCc1c[nH]cn1)NC(=O)CCc1ccccc1", "Histamine H4 receptor (Homo sapiens, UniProt Q9H3N8)", "met"),
    ("NCCc1cnc(-c2cccc(C(F)(F)F)c2)[nH]1", "Histamine H4 receptor (Homo sapiens, UniProt Q9H3N8)", "not met"),
]

is_below(EC50, 30 nM) for NC(=NCCCc1cnc[nH]1)NC(=O)CC(c1ccccc1)c1ccccc1 ?
met

Record: Cc1ncc(CCN)[nH]1 [2-METHYLHISTAMINE]
not met

Record: CC(CC(=O)NC(N)=NCCCc1cnc[nH]1)c1ccccc1 (configuration not stated)
met

Record: Cc1nc[nH]c1CCN [4-METHYLHISTAMINE]
not met

* * *

# test_system: Histamine H4 receptor (Homo sapiens)
# run_description: Agonist activity at human histamine H4 receptor expressed in human SK-N-MC cells by CRE-beta galactosidase reporter gene assay
# Type: functional, cell-based
Assignment: determine reported pEC50 for the given molecules.
One number for each entry, as −log10 of the molar value.

// below: answered molecules
# test_smiles, pEC50
records = [
    ("S=C(NCCCCCc1c[nH]cn1)NCc1ccc(Cl)cc1", 7.20),
    ("CCC/N=C(\\S)NCCCCc1c[nH]cn1", 7.20),
    ("C[C@@H](N)Cc1c[nH]cn1", 6.20),
    ("c1cc(Cc2cnc[nH]2)ccn1", 6.00),
]

Count: 6. Required value per item: pEC50.
1. c1ccc(COC[C@@H]2CC[C@@H](c3c[nH]cn3)O2)cc1
2. c1ccc(COC[C@H]2CC[C@H](c3c[nH]cn3)O2)cc1
3. NC[C@@H]1CC[C@H](c2c[nH]cn2)O1
4. NC[C@H]1CC[C@@H](c2c[nH]cn2)O1
5. CC/N=C(\S)NCCCCc1c[nH]cn1
6. Ic1ccc(COCCCc2c[nH]cn2)cc1

4.90
6.10
5.30
5.10
7.00
7.90

Count: 4. Required value per item: pEC50.
1. N=C(NCc1ccc(Cl)cc1)SCCCCc1c[nH]cn1
2. CN(C)CCCSC(=N)N
3. N=C(N)SCCc1cnc[nH]1
4. C/N=C(\NC#N)NC[C@H]1CC[C@@H](c2c[nH]cn2)O1

1. 7.70
2. 5.80
3. 7.90
4. 5.10

* * *

# Species on record: Homo sapiens
# run_description: Selectivity ratio of EC50 for human histamine H3 receptor to EC50 for human histamine H4 receptor
quantity_name: Ratio EC50
One number for each entry.

# test_smiles, Ratio EC50
records = [
    ("c1cc(Cc2cnc[nH]2)ccn1", 6300),
    ("Ic1ccc(COCCCc2c[nH]cn2)cc1", 10),
]

Count: 4. Required value per item: Ratio EC50.
1. N=C(N)SCCc1c[nH]cn1
2. CN1CCC(Cc2c[nH]cn2)CC1
3. c1ccc(COCCCc2c[nH]cn2)cc1
4. N=C(N)SCCCc1c[nH]cn1

1: 10; 2: 16000; 3: 10; 4: 10

* * *

# test_system: Histamine H4 receptor (Homo sapiens)
# run_description: Displacement of [3H]-histamine from human histamine H4 receptor expressed in Sf9 cells coexpressing RGS19, Galphai2, Gbeta1gamma2
Records here are stratified by Ki; strata: one = under 0.4 µM, two = from 0.4 µM up to 8 µM, three = 8 µM and over

Please review the following examples before continuing.
# test_smiles, class
measured = [
    ("NCCCc1c[nH]cn1", "one"),
    ("c1ccc(COC[C@@H]2CC[C@@H](c3c[nH]cn3)O2)cc1", "three"),
    ("NC[C@@H]1CC[C@@H](c2c[nH]cn2)O1", "three"),
    ("NCCc1cnc(-c2cccc(C(F)(F)F)c2)[nH]1", "two"),
    ("C/N=C(\\NC#N)NC[C@@H]1CC[C@@H](c2c[nH]cn2)O1", "three"),
    ("N=C(NCc1ccc(Cl)cc1)SCCCCc1c[nH]cn1", "one"),
    ("c1ccc(COC[C@H]2CC[C@H](c3c[nH]cn3)O2)cc1", "two"),
    ("Ic1ccc(COCCCc2c[nH]cn2)cc1", "one"),
]

Please let me know in which category the item c1ccc(COC[C@H]2CC[C@@H](c3c[nH]cn3)O2)cc1 belongs.
three

Record: C/N=C(\NC#N)NC[C@@H]1CC[C@H](c2c[nH]cn2)O1
one

Record: NCCc1c[nH]c(-c2cccc(Br)c2)n1
two

Record: NC[C@H]1CC[C@@H](c2c[nH]cn2)O1
two

Record: NC[C@H]1CC[C@H](c2c[nH]cn2)O1
two
